# System: MOLT-4
# PROTOCOL: NCI tumour cell line growth inhibition, 48 h
Calls of active or inactive are those of the source. Cut-off read from the data, not from the text of the source: active = GI50 up to about 1.1 µM and inactive = higher. Non-standard residues stand in square brackets, D forms with d. Residues, ends and D or L forms follow the SMILES beside them. *: point of attachment. Ac5c = NC1(C(=O)O)CCCC1; Boc = CC(C)(C)OC(=O)*; tBu = CC(C)(C)*
Write down the outcome that applies. Available outcomes: YES = active, NO = inactive

{"COMPOUND": "O=C1/C(=C/c2ccc(Br)s2)NC(=S)N1CN1CCCCC1", "CLASS": "NO"}
{"COMPOUND": "S=C(N/N=C/c1ccccc1)NC12CC3CC(CC(C3)C1)C2", "CLASS": "NO"}
{"COMPOUND": "CC(OC(C)(C)C)C1NC(=O)C(CCCCNC(=O)OC(C)(C)C)NC(=O)C(Cc2c[nH]c3ccccc23)NC(=O)C(Cc2ccccc2)NC(=O)C2(CCCC2)NC(=O)C(Cc2ccccc2)NC1=O (stereo unspecified) (cyclo([Ac5c]FWK(Boc)T(tBu)F); configuration not given here)", "CLASS": "NO"}
{"COMPOUND": "COc1cc(CNC(=O)CCCCCCCCCCSC#N)ccc1O", "CLASS": "NO"}
{"COMPOUND": "O/N=N/c1cnccn1", "CLASS": "NO"}

Dear all, I need the recorded test outcome for CC#N.O[C@@H]1CCCC[C@@H]1O.O[C@@H]1CCCC[C@@H]1O.[TeH2] , thank you. NO

Hey, what did the test say about CC(CC(=O)O)(CC(=O)O)C(=O)O ? NO

---

# Test system: MDA-MB-435
# PROTOCOL: NCI tumour cell line growth inhibition, 48 h
Active and inactive are the calls of the source. No stated cut-off is given here; in the data, active = GI50 up to about 1.1 µM and inactive = higher.
Log the outcome using a class from active, inactive

Recorded results for 10 molecules are shown here.
{"MOLECULE": "C[C@@H]1CCC2[C@@H](C)[C@H](O[C@H]3O[C@@H]4O[C@@]5(C)CCC6[C@H](C)CCC([C@H]3C)[C@]64OO5)O[C@@H]3O[C@@]4(C)CCC1[C@@]23OO4 (some centres undefined)", "SUBJECT_OF_TEST": "MDA-MB-435", "CLASS": "active"}
{"MOLECULE": "O=C1/C(=C/c2ccc(Cl)cc2)Oc2ccccc21", "SUBJECT_OF_TEST": "MDA-MB-435", "CLASS": "inactive"}
{"MOLECULE": "Cc1ccc(C(=O)/C=C2/Nc3ccccc3NC2=O)c(C)c1", "SUBJECT_OF_TEST": "MDA-MB-435", "CLASS": "inactive"}
{"MOLECULE": "CC1(C)[C@@H](Cn2cnc3c(O)nc(N)nc32)CC[C@@]1(C)CO", "SUBJECT_OF_TEST": "MDA-MB-435", "CLASS": "inactive"}
{"MOLECULE": "O=C1c2c(O)ccc(O)c2C(=O)c2c(NCCNC(=O)C(O)C(O)C(O)C(O)CO)ccc(NCCNC(=O)C(O)C(O)C(O)C(O)CO)c21 (centres undefined)", "SUBJECT_OF_TEST": "MDA-MB-435", "CLASS": "active"}
{"MOLECULE": "CC1=C(C(=O)NCCc2ccccc2)CC(C(=O)NCCc2ccccc2)=C(C)N1", "SUBJECT_OF_TEST": "MDA-MB-435", "CLASS": "inactive"}
{"MOLECULE": "CC1=NN(c2nc(N)nc(CS(C)(=O)=O)n2)C(C)(C)C1", "SUBJECT_OF_TEST": "MDA-MB-435", "CLASS": "inactive"}
{"MOLECULE": "N#Cc1ccc(C(=O)/C=C/c2ccc(O)c(O)c2)cc1", "SUBJECT_OF_TEST": "MDA-MB-435", "CLASS": "inactive"}
{"MOLECULE": "NC(=S)N/N=C\\c1ccc(OCc2cccc(COc3ccc(/C=N/NC(N)=S)cc3)n2)cc1", "SUBJECT_OF_TEST": "MDA-MB-435", "CLASS": "inactive"}
{"MOLECULE": "C=CC(C)(C)/C(=C\\CO[Si](C(C)C)(C(C)C)C(C)C)C(=O)N(C)c1ccccc1I", "SUBJECT_OF_TEST": "MDA-MB-435", "CLASS": "inactive"}

Please share the test call associated with CCC1=CCC23C(=O)C=CC(=O)C2(C1)C(=O)c1cccc(OC)c1C3=O (centres undefined) . inactive

For Cc1cccc2c1c(=O)c1c(O)c3c(cc1n2C)OC(C)(C)C=C3 , which call appears in the assay record? inactive

// return assay outcome for CC1(C)C(=O)/C=C\C(=O)C(C)(C)C(=O)/C=C\C(=O)C(C)(C)C(=O)/C=C\C(=O)C(C)(C)C(=O)/C=C\C1=O inactive

// param item: CCOC(=O)Cc1nnc2n(-c3ccccc3)c(=O)c3ccccc3n12 ; yields the recorded call inactive

Called result for COC(=O)Cc1cccc2c(=O)c(S(=O)(=O)NC(=O)Nc3ccc(Cl)cc3)c(-c3ccccc3)oc12 inactive

I would be grateful if you could indicate the recorded call for CSc1nc(C)c(CCOC(C)=O)c(Cl)n1 . inactive

Write down the call the test reported for this molecule. Item: COc1cc2c(cc1O)-c1c(cnn1-c1ccc([N+](=O)[O-])cc1)CCC2 inactive

Hello, I am checking results. What call was entered for CC(C)[Si](OC1=C(C(=O)N(C)c2ccccc2Cl)CCCC1)(C(C)C)C(C)C ? inactive

Short answer needed: outcome of this test for O=c1[nH]nc(Cc2ccc(Cl)cc2)n1/N=C/c1c[nH]c2ccccc12 ? inactive
